Entry source: ChEMBL document CHEMBL4340509

UniProt P49841: recorded pIC50 for assorted compounds
The meaning of pIC50 here: minus log10 of the concentration in molar units.

Which pIC50 value is on record for `Nc1ncccc1/N=C/c1ccnc(NC(=O)C2CC2)c1` ?
7.15

Could you share which pIC50 value was measured for `Nc1ncc(-c2ccc(F)cc2)cc1NC(=O)c1ccnc(NC(=O)C2CC2)c1` ?
6.62

# lookup: pIC50 of `Cc1csc(-c2cnc(N)c(/N=C/c3ccnc(NC(=O)C4CC4)c3)c2)c1`
6.50

Using the record for `Nc1ncccc1NC(=O)c1ccnc(NC(=O)C2CC2)c1` , report its pIC50.
6.20

# input compound: `Nc1nccc(-c2cccc(F)c2)c1/N=C/c1ccnc(NC(=O)C2CC2)c1` ; wanted: its pIC50
6.05

For `Nc1nccc(-c2ccccc2)c1/N=C/c1ccnc(NC(=O)C2CC2)c1` , what is its reported pIC50?
6.20

Need pIC50, item `Cc1ccc(-c2ccnc(N)c2/N=C/c2ccnc(NC(=O)C3CC3)c2)cc1`
5.90

Give its pIC50 value. Item: `Cc1csc(-c2cnc(N)c(NC(=O)c3ccnc(NC(=O)C4CC4)c3)c2)c1`
6.66

# pIC50 lookup, item `Nc1ncc(-c2ccncc2)cc1/N=C/c1ccnc(NC(=O)C2CC2)c1`
7.42

Query (compound): `Nc1ncc(-c2ccccc2)cc1/N=C/c1ccnc(NC(=O)C2CC2)c1` ; field requested: pIC50
7.31

Requested read-out: pIC50. Entry: `Cc1ccc(-c2cnc(N)c(/N=C/c3ccnc(NC(=O)C4CC4)c3)c2)cc1`
6.43

Entry `Cc1ccc(-c2cnc(N)c(NC(=O)c3ccnc(NC(=O)C4CC4)c3)c2)cc1` has what pIC50?
6.90

Consider the compound `Nc1nccc(-c2ccc(F)cc2)c1/N=C/c1ccnc(NC(=O)C2CC2)c1` and give its measured pIC50.
5.92

* * *

Test Description: Disaggregation of Cu2+ induced human HFIP-pretreated amyloid beta (1 to 42) preformed fibrils at 40 uM measured after 24 hrs by ThT-based fluorescence assay relative to control
Observed Property: Activity (%)
Reply numerically in %, unit not repeated.

Param item = `Oc1c(I)cc(Cl)c2cccnc12` ; retrieve measured Activity.
34.9

Any idea what Activity was measured for `Nc1ncccc1/N=C/c1ccnc(NC(=O)C2CC2)c1` ?
42.5

Sample `Nc1ncc(-c2ccncc2)cc1/N=C/c1ccnc(NC(=O)C2CC2)c1` — what was its Activity?
50.9

Quick one: Activity of `Nc1ncc(-c2ccccc2)cc1/N=C/c1ccnc(NC(=O)C2CC2)c1` ?
66.1

* * *

Target Of Assay: UniProt P49841
Test Description: Inhibition of GSK-3beta (unknown origin) at 1 uM using FAM-labeled peptide as substrate preincubated for 10 mins followed by substrate addition by caliper assay relative to control
Quick rule for you: inhibition at 80% or higher means Condition met, lower means Condition not met.

Please check the record `Nc1ncccc1NCc1ccnc(NC(=O)C2CC2)c1` and state if its inhibition is at or above 80%.
Condition not met

Reported inhibition reaches at least 80% for `Cc1csc(-c2cnc(N)c(NCc3ccnc(NC(=O)C4CC4)c3)c2)c1` ?
Condition not met

Form field: inhibition at least 80%? Entry: `Nc1ncc(-c2ccncc2)cc1NC(=O)c1ccnc(NC(=O)C2CC2)c1`
Condition met

Confirm if inhibition reported for the compound `Cc1ccc(-c2cnc(N)c(NCc3ccnc(NC(=O)C4CC4)c3)c2)cc1` is 80% or above.
Condition not met

Has `Cc1ccc(-c2cnc(N)c(NC(=O)c3ccnc(NC(=O)C4CC4)c3)c2)cc1` a recorded inhibition greater than or equal to 80%?
Condition met

Is it the case that `Nc1ncc(-c2ccncc2)cc1NCc1ccnc(NC(=O)C2CC2)c1` has inhibition reaching or exceeding 80%?
Condition not met

Tell me whether inhibition is at least 80% here: `Cc1csc(-c2cnc(N)c(NC(=O)c3ccnc(NC(=O)C4CC4)c3)c2)c1`
Condition met

Tell me whether inhibition is at least 80% here: `Nc1ncc(-c2ccc(F)cc2)cc1NC(=O)c1ccnc(NC(=O)C2CC2)c1`
Condition met

Please tell me: is the compound `Nc1ncc(-c2ccccc2)cc1NC(=O)c1ccnc(NC(=O)C2CC2)c1` at or over 80% in terms of inhibition?
Condition met

Hi, just wondering whether `Nc1ncc(-c2ccccc2)cc1NCc1ccnc(NC(=O)C2CC2)c1` shows inhibition of 80% or higher.
Condition not met

// inclusive: inhibition at least 80%? input: `Nc1ncccc1NC(=O)c1ccnc(NC(=O)C2CC2)c1`
Condition not met

* * *

Test Description: Antioxidant activity assessed as ABTS radical scavenging activity incubated for 6 mins
Type: functional
Observed Property: pIC50
The scale used: pIC50 is minus the common logarithm of the concentration in molar units.

Query: pIC50; subject: `Nc1ncc(-c2ccncc2)cc1/N=C/c1ccnc(NC(=O)C2CC2)c1`
5.46

Requested field: pIC50. Item: `Nc1ncc(-c2ccccc2)cc1/N=C/c1ccnc(NC(=O)C2CC2)c1`
5.14

Request the reported pIC50 associated with Cc1c(C)c2c(c(C)c1O)CCC(C)(C(=O)O)O2 (centres undefined)
4.84

Give its pIC50 value. Item: `Nc1ncccc1/N=C/c1ccnc(NC(=O)C2CC2)c1`
5.41

* * *

Test Description: Inhibition of Cu2+-induced HFIP pretreated human amyloid beta (1 to 42) aggregation at 40 uM measured after 24 hrs by ThT-based fluorescence assay relative to control
Please go through the items and note down their inhibition.
Kindly provide the numeric value in % only, without the unit symbol.

Find the recorded inhibition belonging to `Nc1ncc(-c2ccncc2)cc1/N=C/c1ccnc(NC(=O)C2CC2)c1` and report it.
33.8

# query: inhibition of entry `Nc1ncc(-c2ccccc2)cc1/N=C/c1ccnc(NC(=O)C2CC2)c1`
63

Need inhibition, item `Nc1ncccc1/N=C/c1ccnc(NC(=O)C2CC2)c1`
24.3

inhibition for `Oc1c(I)cc(Cl)c2cccnc12` ?
38.8

* * *

Test system: SH-SY5Y
Test Description: Cytotoxicity against human SH-SY5Y cells measured after 24 hrs by MTT assay
Type: cell-based
pIC50: −log10 of the molar value.
Observed Property: pIC50

Any idea what its pIC50 is? The compound is `Nc1ncccc1/N=C/c1ccnc(NC(=O)C2CC2)c1`
< 3.70

Looking for the measured pIC50 of `Nc1ncc(-c2ccccc2)cc1/N=C/c1ccnc(NC(=O)C2CC2)c1` , can you help?
3.80

Query (compound): `Nc1ncc(-c2ccncc2)cc1/N=C/c1ccnc(NC(=O)C2CC2)c1` ; field requested: pIC50
< 3.70

* * *

Answer each item with its documented viability at 10 µM.
System: SH-SY5Y
Test Description: Neuroprotective activity against H2O2-induced oxidative damage in human SH-SY5Y cells assessed as cell viability at 10 uM measured after 24 hrs by MTT assay relative to control
Assay type: functional
Condition Label: read-out: Activity
Answer in %, number only, no unit symbol.

Form field: reported viability at 10 µM of `Nc1ncccc1/N=C/c1ccnc(NC(=O)C2CC2)c1`
92.1

Suppose we examine the compound `Nc1ncc(-c2ccncc2)cc1/N=C/c1ccnc(NC(=O)C2CC2)c1` ; what viability at 10 µM value has been reported?
92

Report viability at 10 µM for `Nc1ncc(-c2ccccc2)cc1/N=C/c1ccnc(NC(=O)C2CC2)c1` please.
92.7

// lookup viability at 10 µM for Cc1c(C)c2c(c(C)c1O)CCC(C)(C(=O)O)O2 (centres undefined)
90
